tested on: secreted VEGF; test: Secreted VEGF ELISA test in Hep3B-VEGF Luciferase cells under deferoxamine-induced hypoxia; type: cell-based, human; conditions: Homo sapiens, deferoxamine 100 μM, 18-20 h, read-out: IC50 for inhibition of secreted VEGF (ELISA)
READOUT_LABEL: IC50 (nM)
Reply numerically in nM, unit not repeated.

Q) Identify the measured IC50 of CN1C(=O)[C@@]23CC4([C@]56C[C@@]78SS[C@@](CO)(C(=O)N7[C@H]5Nc5ccccc56)N(C)C8=O)c5ccccc5N[C@@H]4N2C(=O)[C@]1(CO)SS3 (stereo partly shown) for secreted VEGF.
A) 100
